Test system: Phytophthora infestans
experimental_protocol: whole plant or invertebrate
Assay type: in vivo
experimental_setup: tomato late blight; spray 17 h after inoculation; compounds without asterisk (not 40 or 10 ppm)
Output Met for Test D disease rating (100 = 100% disease control, 0 = no disease control) not less than 80%; output Not met otherwise.

Field: example entries. Status: answers known.
>>> discrete_label("Cc1cc(C(F)(F)F)nn1CC(=O)N1CCC(c2cc(C(=O)N(C)[C@@H]3CCCc4ccccc43)no2)CC1")
"Met"
>>> discrete_label("Cc1ccc(C)c(CC(=O)N2CCC(c3nc(C(=O)N(C)C4CCCc5occc54)cs3)CC2)c1 (stereo not drawn)")
"Not met"
>>> discrete_label("CC(C)c1nccn1CC(=O)N1CCC(c2nc(C(=O)N(C)[C@H](C)c3ccccc3)cs2)CC1")
"Not met"
>>> discrete_label("Cc1nc(C)n(CC(=O)N2CCC(c3nc(C(=O)N(C)[C@H](C)c4ccccc4)cs3)CC2)n1")
"Met"

Kindly determine if Test D disease rating (100 = 100% disease control, 0 = no disease control) recorded for Cc1cccc(CC(=O)N2CCC(c3nc(C(=O)N(C)Cc4cccnc4)cs3)CC2)c1 is above or exactly 80%.
Not met

Kindly determine if Test D disease rating (100 = 100% disease control, 0 = no disease control) recorded for Cc1cccc(CC(=O)N2CCC(c3nc(C(=O)N(C)C(C)c4ncc(Cl)cc4Cl)cs3)CC2)c1 (stereo not drawn) is above or exactly 80%.
Not met

Kindly determine if Test D disease rating (100 = 100% disease control, 0 = no disease control) recorded for CN(C(=O)c1csc(C2CCN(C(=O)Cc3ccccn3)CC2)n1)[C@@H]1CCCc2ccccc21 is above or exactly 80%.
Not met

Kindly determine if Test D disease rating (100 = 100% disease control, 0 = no disease control) recorded for C[C@H](c1ccccc1)N(C)C(=O)c1csc(C2CCN(C(=O)Cc3cccnc3)CC2)n1 is above or exactly 80%.
Not met

Kindly determine if Test D disease rating (100 = 100% disease control, 0 = no disease control) recorded for Cc1cnn(CC(=O)N2CCC(c3nc(C(=O)N(C)[C@H](C)c4ccccc4)cs3)CC2)c1 is above or exactly 80%.
Not met

---

Measured Test D disease rating (100 = 100% disease control, 0 = no disease control) by item
System: Phytophthora infestans
experimental_protocol: whole plant or invertebrate
Format: in vivo
experimental_setup: tomato late blight; spray 17 h after inoculation; compounds without asterisk (not 40 or 10 ppm)
Answer in %, number only, no unit symbol.

Example cases with answers are listed next.
>>> measured_result("Cc1cccc(CC(=O)N2CCC(c3nc(C(=O)N(C)Cc4ccccn4)cs3)CC2)c1")
0
>>> measured_result("Cc1cc(C)nc(CC(=O)N2CCC(c3nc(C(=O)N(C)[C@@H]4CCCc5ccccc54)cs3)CC2)c1")
99
>>> measured_result("Cc1ccc(C(F)(F)F)cc1CC(=O)N1CCC(c2nc(C(=O)N(C)[C@H](C)c3ccccc3)cs2)CC1")
0
>>> measured_result("Cc1ccc(C)c(CC(=O)N2CCC(c3nc(C(=O)N(C)C(c4ccccc4)C(C)C)cs3)CC2)c1 (centres unmarked)")
49
>>> measured_result("CNC(=O)OC1CCC(N(C)C(=O)c2csc(C3CCN(C(=O)Cn4nc(C(F)(F)F)cc4C)CC3)n2)c2ccccc21 (centres unmarked)")
99
>>> measured_result("Cc1cn(CC(=O)N2CCC(c3nc(C(=O)N(C)[C@H](C)c4ccccc4)cs3)CC2)c(C)n1")
0

So what does the record say about Test D disease rating (100 = 100% disease control, 0 = no disease control) for Cc1cc(C(F)(F)F)nn1CC(=O)N1CCC(c2nc(C(=O)N(C)C3CCC(C)c4ccccc43)cs2)CC1 (mixture of isomers) ?
99

So what does the record say about Test D disease rating (100 = 100% disease control, 0 = no disease control) for C[C@H](c1ccccc1)N(C)C(=O)c1coc(N2CCN(C(=O)Cc3cccc(C(F)(F)F)c3)CC2)n1 ?
92

So what does the record say about Test D disease rating (100 = 100% disease control, 0 = no disease control) for Cc1cc(C(F)(F)F)nn1CC(=O)N1CCC(n2cc(C(=O)N(C)[C@@H]3CCCc4ccccc43)nn2)CC1 ?
40

So what does the record say about Test D disease rating (100 = 100% disease control, 0 = no disease control) for CC(c1ccncc1)N(C)C(=O)c1csc(C2CCN(C(=O)Cc3cccc(C(F)(F)F)c3)CC2)n1 (centres unmarked) ?
0

So what does the record say about Test D disease rating (100 = 100% disease control, 0 = no disease control) for COc1ccccc1CC(=O)N1CCN(c2nc(C(=O)N(C)[C@H](C)c3ccccc3)co2)CC1 ?
89

So what does the record say about Test D disease rating (100 = 100% disease control, 0 = no disease control) for C[C@H](c1ccccc1)N(C)C(=O)c1csc(C2CCN(C(=O)Cc3cc(Cl)ccc3Cl)CC2)n1 ?
100

So what does the record say about Test D disease rating (100 = 100% disease control, 0 = no disease control) for Cc1cc(C(F)(F)F)nn1CC(=O)N1CCC(c2nc(C(=O)N(C)C3CCCc4cc(O)ccc43)cs2)CC1 (centres unmarked) ?
99

So what does the record say about Test D disease rating (100 = 100% disease control, 0 = no disease control) for COc1cccc([C@@H](C)N(C)C(=O)c2csc(C3CCN(C(=O)Cc4cc(C)ccc4C)CC3)n2)c1 ?
0

---

System: Phytophthora infestans
experimental_protocol: whole plant or invertebrate
Format: in vivo
experimental_setup: tomato late blight; spray 17 h after inoculation; tested at 10 ppm
Measured Test D disease rating (100 = 100% disease control, 0 = no disease control) by item
Answer in %, number only, no unit symbol.

Example cases with answers are listed next.
>>> measured_result("CC(C)c1cc(C(F)(F)F)nn1CC(=O)N1CCC(c2nc(C(=O)N(C)[C@@H]3CCCc4ccccc43)cs2)CC1")
99
>>> measured_result("Cc1cc(C(F)(F)F)nn1CC(=O)N1CCC(c2nc(C(=O)N(C)C(C)c3ccccc3Cl)cs2)CC1 (centres unmarked)")
97
>>> measured_result("Cc1cc(C(F)(F)F)nn1CC(=O)N1CCC(c2nc(C(=O)N(C)C3CCCCc4ccccc43)cs2)CC1 (centres unmarked)")
98
>>> measured_result("Cc1cc(C(F)(F)F)nn1CC(=O)N1CCC(c2nc(C(=O)N(C)C3CCSc4ccccc43)cs2)CC1 (centres unmarked)")
92
>>> measured_result("Cc1cc(C(F)(F)F)nn1CC(=O)N1CCC(c2nc(C(=O)N(C)C3COc4ccccc43)cs2)CC1 (centres unmarked)")
76

So what does the record say about Test D disease rating (100 = 100% disease control, 0 = no disease control) for Cc1cc(C(F)(F)F)nn1CC(=O)N1CCC(c2nc(C(=O)N(C)C3CCOc4ccccc43)cs2)CC1 (centres unmarked) ?
87

So what does the record say about Test D disease rating (100 = 100% disease control, 0 = no disease control) for Cc1cc(C(F)(F)F)nn1CC(=O)N1CCC(c2nc(C(=O)N(C)C3CCc4cc(Cl)ccc43)cs2)CC1 (centres unmarked) ?
98

So what does the record say about Test D disease rating (100 = 100% disease control, 0 = no disease control) for Cc1cc(C(F)(F)F)nn1CC(=O)N1CCC(c2nc(C(=O)N(C)C3CCCCC3c3ccccc3)cs2)CC1 (centres unmarked) ?
58

So what does the record say about Test D disease rating (100 = 100% disease control, 0 = no disease control) for Cc1cc(C(F)(F)F)nn1CC(=O)N1CCC(c2nc(C(=O)N(C)C3CCCc4occc43)cs2)CC1 (centres unmarked) ?
16

So what does the record say about Test D disease rating (100 = 100% disease control, 0 = no disease control) for Cc1cc(C(F)(F)F)nn1CC(=O)N1CCC(c2nc(C(=O)N(C)C3CSCc4ccccc43)cs2)CC1 (centres unmarked) ?
98

So what does the record say about Test D disease rating (100 = 100% disease control, 0 = no disease control) for Cc1cc(C(F)(F)F)nn1CC(=O)N1CCC(c2nc(C(=O)N(C)C(C)c3ccccc3F)cs2)CC1 (centres unmarked) ?
71

---

System: Phytophthora infestans
experimental_protocol: whole plant or invertebrate
Assay type: in vivo
experimental_setup: tomato late blight; spray the day before inoculation; compounds without asterisk (not 40 or 10 ppm)
Measured Test C disease rating (100 = 100% disease control, 0 = no disease control) by item
Answer in %, number only, no unit symbol.

Example cases with answers are listed next.
>>> measured_result("Cc1ccn(CC(=O)N2CCC(c3nc(C(=O)N(C)[C@H](C)c4ccccc4)cs3)CC2)n1 [compound 72]")
91
>>> measured_result("Cc1ccc(C)c(CC(=O)N2CCC(c3nc(C(=O)N(C)[C@H](C)c4cccc5ccccc45)cs3)CC2)c1 [compound 105]")
100
>>> measured_result("Cc1cc(C(F)(F)F)nn1CC(=O)N1CCC(c2nc(C(=O)N(C)C3CCCc4c(O)cccc43)cs2)CC1 (stereo not drawn) [compound 189]")
100
>>> measured_result("C[C@H](c1ccccc1)N(C)C(=O)c1csc(C2CCN(C(=O)Cc3cc(C(F)(F)F)ccc3C(F)(F)F)CC2)n1 [compound 87]")
88
>>> measured_result("Cc1ccc(C)c(CC(=O)N2CCC(c3nc(C(=O)N(C)[C@H](C)c4ccc(Cl)cc4)cs3)CC2)c1 [compound 60]")
93
>>> measured_result("Cc1cccc(CC(=O)N2CCC(c3nc(C(=O)N(C)[C@H](C)c4ccccc4)cs3)CC2)c1 [compound 36]")
100
>>> measured_result("Cc1ccc(C)c(CC(=O)N2CCC(c3nc(C(=O)N(C)C(c4ccccc4)C(C)C)cs3)CC2)c1 (stereo not drawn) [compound 96]")
100
>>> measured_result("C[C@H](c1ccccc1)N(C)C(=O)c1csc(C2CCN(C(=O)Cc3ccc(F)c(C(F)(F)F)c3)CC2)n1 [compound 34]")
31

So what does the record say about Test C disease rating (100 = 100% disease control, 0 = no disease control) for C[C@H](c1ccccc1)N(C)C(=O)c1csc(C2CCN(C(=O)Cc3cc(F)cc(F)c3)CC2)n1 [compound 37] ?
80

So what does the record say about Test C disease rating (100 = 100% disease control, 0 = no disease control) for C[C@H](c1ccccc1)N(C)C(=O)c1csc(C2CCN(C(=O)Nc3cccc(C(F)(F)F)c3)CC2)n1 [compound 155] ?
31

So what does the record say about Test C disease rating (100 = 100% disease control, 0 = no disease control) for CN(C(=O)c1csc(C2CCN(C(=O)Cc3ccccn3)CC2)n1)[C@@H]1CCCc2ccccc21 [compound 205] ?
75

So what does the record say about Test C disease rating (100 = 100% disease control, 0 = no disease control) for Cc1ccc(C)c(CC(=O)N2CCC(c3nc(C(=O)N(C)C4COc5ccccc54)cs3)CC2)c1 (stereo not drawn) [compound 138] ?
100

So what does the record say about Test C disease rating (100 = 100% disease control, 0 = no disease control) for Cc1ccc(C)c(CC(=O)N2CCC(c3nc(C(=O)N(C)[C@H](C)c4cccc(C(F)(F)F)c4)cs3)CC2)c1 [compound 67] ?
68

So what does the record say about Test C disease rating (100 = 100% disease control, 0 = no disease control) for C[C@H](c1ccccc1)N(C)C(=O)c1csc(C2CCN(C(=O)Cn3cc(Br)cn3)CC2)n1 [compound 71] ?
74

So what does the record say about Test C disease rating (100 = 100% disease control, 0 = no disease control) for C[C@H](c1ccccc1)N(C)C(=O)c1csc(C2CCN(C(=O)Cn3cnc(C4CCCCC4)n3)CC2)n1 [compound 140] ?
0

Cited source for all entries: patent US8586611B2
